Test system: MCF7
assay: Cytotoxicity against human MCF7 cells assessed as reduction in cell growth incubated for 72 hrs by SRB assay
Assay type: functional, cell-based
conditions_used: MCF7, 72 h
Consider the following compounds; for each one, report its IC50.
Could you give me the number in µM? Just the number is fine.

Ask: May I ask what IC50 has been recorded for "N#Cc1c(-c2ccc3ncc(C(N)=O)c(Nc4cccc(Br)c4)c3c2)csc1N" ?
Reply: 50.6

Ask: Input "Cc1ccc(Nc2c(C(N)=O)cnc3ccc(C(=O)/C=C/c4ccc(-c5ccc(Cl)cc5)o4)cc23)cc1"
Reply: 3.35

Ask: Same question for "CC(=O)c1ccc2ncc(C(N)=O)c(Nc3ccc(OCc4ccccc4)cc3)c2c1" please.
Reply: 10.8
